test system: Setaria faberi (SETFA); assay: Post-emergence efficacy, glasshouse; format: in vivo; conditions: Setaria faberi, post-emergence, 312 h; Application Rate 1000 g/Ha; evaluated after 13 days; 100=total damage to plant, 0=no damage to plant; read-out: Control of weed species after post-emergence application, SETFA
Reported Metric: pest or weed control at 1000 g/ha (%)
Reply with just the number (in %).

Given the molecule C[n+]1cc(CP(=O)([O-])O)c2ccccc2n1 [Compound A50] and test system Setaria faberi (SETFA), the measured pest or weed control at 1000 g/ha is 10

Test item CC(C)CP(=O)([O-])c1c[n+](C)nc2ccccc12 [Compound A45] ; Setaria faberi (SETFA); reported pest or weed control at 1000 g/ha was 90

Reported Setaria faberi (SETFA) pest or weed control at 1000 g/ha for item CCOP(=O)(O)c1c[n+](CCO)nc2ccccc12 [Compound A71] was 100

Form: item CC[n+]1cc(P(=O)([O-])OC)c2ccccc2n1 [Compound A65] ; test system Setaria faberi (SETFA); pest or weed control at 1000 g/ha: 80

Form field pest or weed control at 1000 g/ha for item CS(=O)(=O)[N-]C(=O)c1c[n+](CCO)nc2ccccc12 [Compound A21] on Setaria faberi (SETFA): 90

---

test system: Euphorbia heterophylla (EPHHL); test: Post-emergence efficacy, glasshouse; format: in vivo; settings: Euphorbia heterophylla, post-emergence, 312 h; Application Rate 1000 g/Ha; evaluated after 13 days; 100=total damage to plant, 0=no damage to plant; read-out: Control of weed species after post-emergence application, EPHHL
# label = yes (1) if pest or weed control at 1000 g/ha >= 90% else no (0)

Exam item: decide whether the reported pest or weed control at 1000 g/ha for C[C@@H](NC(=O)c1c[n+](C)nc2ccccc12)C(=O)O [Compound A9, 2,2,2-trifluoroacetate] is at least 90%. no (0)

Please tell me: is the compound "C[C@@H](NC(=O)c1c[n+](C)nc2ccccc12)C(=O)OC(C)(C)C" at or over 90% in terms of pest or weed control at 1000 g/ha? no (0)

Check if pest or weed control at 1000 g/ha >= 90% (inclusive). Item: "CCCC[n+]1cc(C(=O)[N-]S(C)(=O)=O)c2ccccc2n1" yes (1)

Evaluate "C[n+]1cc(SCC(=O)O)c2ccccc2n1" : pest or weed control at 1000 g/ha at minimum 90%? no (0)

Item "CS(=O)(=O)[N-]C(=O)c1c[n+](CC(F)F)nc2ccccc12" with pest or weed control at 1000 g/ha of 90% or above? no (0)

Item "COP(=O)([O-])c1c[n+](CC(=O)NS(C)(=O)=O)nc2ccccc12" with pest or weed control at 1000 g/ha of 90% or above? no (0)

Reported pest or weed control at 1000 g/ha at or above 90%? "CC[n+]1cc(P(=O)([O-])OC)c2ccccc2n1" yes (1)

Does the reported pest or weed control at 1000 g/ha for "COP(=O)([O-])c1c[n+](CCO)nc2ccccc12" fall at or above the 90% mark? yes (1)

In plain terms: is recorded pest or weed control at 1000 g/ha at least 90% for "CCCCCCCC[n+]1cc(C(=O)[N-]S(C)(=O)=O)c2ccccc2n1" ? no (0)

Is reported pest or weed control at 1000 g/ha greater than or equal to 90% here: "C[n+]1cc(OCC(=O)O)c2ccccc2n1" no (0)

Check the entry C[n+]1cc(C(=O)O)c2ccccc2n1 [Compound A3] : does pest or weed control at 1000 g/ha equal or exceed 90%? no (0)

Does the compound "O=C(O)c1c[n+](CCO)nc2ccccc12" have recorded pest or weed control at 1000 g/ha that is 90% or more? yes (1)

Identify whether the reported pest or weed control at 1000 g/ha of the following compound is 90% or greater: "CS(=O)(=O)[N-]C(=O)c1c[n+](CCO)nc2ccccc12" no (0)

Dear colleague, could you confirm whether "CCP(=O)([O-])c1c[n+](C)nc2ccccc12" has pest or weed control at 1000 g/ha at or above 90%? yes (1)

Threshold query (pest or weed control at 1000 g/ha >= 90%) on C[n+]1cc(P(C)(=O)O)c2ccccc2n1 [Compound A31] yes (1)

Reported pest or weed control at 1000 g/ha reaches at least 90% for "COP(=O)(O)Cc1c[n+](C)nc2ccccc12" ? yes (1)

Check the entry "O=C(O)CC[n+]1cc(C(=O)[N-]S(=O)(=O)C2CC2)c2ccccc2n1" : does pest or weed control at 1000 g/ha equal or exceed 90%? no (0)

Record "C[n+]1cc(C(=O)Nc2nncs2)c2ccccc2n1" ; criterion: pest or weed control at 1000 g/ha no lower than 90%. Met? no (0)
